- assay-procedure: AUC (0 to infinity ) in ICR mouse at 1 mg/kg, iv measured for 0.083 to 24 hrs by LC-MS/MS analysis
- Assay type: ADME, organism-based
- Parameters: time upper 24 hrs, time lower 0.083 hrs, dose 1 mg/kg, route iv
- condition-details: in vivo
measure-name: AUC(0-inf) (ng·h/mL)
Your answer is read as ng·h/mL, so omit the unit and give the number.

Q: State the recorded AUC(0-inf) for this entry: `O=C(NO)c1nc(-c2ccc(COc3ccc(Br)cc3)cc2)no1`
A: 228

---

- assay-system: Sphingomyelin phosphodiesterase (Homo sapiens)
- Sequence (P17405 whole entry, the tested form may be a part): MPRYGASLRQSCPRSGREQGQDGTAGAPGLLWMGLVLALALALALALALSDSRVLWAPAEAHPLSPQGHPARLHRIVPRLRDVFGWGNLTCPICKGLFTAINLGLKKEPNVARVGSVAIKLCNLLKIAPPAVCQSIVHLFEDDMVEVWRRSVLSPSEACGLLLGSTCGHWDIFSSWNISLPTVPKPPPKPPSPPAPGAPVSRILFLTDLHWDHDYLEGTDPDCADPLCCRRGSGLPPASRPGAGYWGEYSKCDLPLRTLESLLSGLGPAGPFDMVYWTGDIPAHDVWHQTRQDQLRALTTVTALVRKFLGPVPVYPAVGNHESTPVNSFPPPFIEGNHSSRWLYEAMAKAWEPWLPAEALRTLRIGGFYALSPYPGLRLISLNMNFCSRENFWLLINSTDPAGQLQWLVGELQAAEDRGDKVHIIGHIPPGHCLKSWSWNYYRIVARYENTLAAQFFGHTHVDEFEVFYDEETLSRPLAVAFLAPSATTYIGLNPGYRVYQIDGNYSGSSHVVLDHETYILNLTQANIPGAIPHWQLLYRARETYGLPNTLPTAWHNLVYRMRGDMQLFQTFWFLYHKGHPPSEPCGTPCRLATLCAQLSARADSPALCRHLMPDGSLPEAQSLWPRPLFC
- assay-procedure: Inhibition of recombinant human aSMase (62 to 628 residues) using HMU-PC as substrate incubated for 2 hrs by fluorescence based assay
The label condition met is reserved for IC50 strictly under 5 µM; condition not met covers values equal to or above it.

Observe how each entry below is paired with its result.
O=C(NO)c1nc(COc2ccc(-c3ccc(Cl)cc3)cc2)no1 = condition met
CC(C)COc1ccc(-c2cc(C(=O)NO)no2)cc1 = condition not met
O=C(NO)c1nc(-c2ccc(COc3cccc(Cl)c3)cc2)no1 = condition not met
O=C(NO)c1cc(-c2ccc(-c3ccc(Cl)cc3)cc2)on1 = condition not met
O=C(NO)c1nc(-c2ccc(COc3ccc(Cl)cc3)cc2)no1 = condition met
O=C(NO)c1cc(-c2ccc(OCc3ccccc3)cc2)on1 = condition not met
O=C(Cc1noc(COc2ccc(-c3ccccc3)cc2)n1)NO = condition not met
O=C(NO)c1noc(-c2ccc(Br)cc2)n1 = condition not met

Q: In the record for `O=C(NO)c1nc(-c2ccc(COc3ccccc3)cc2)no1` , is IC50 less than 5 µM?
A: condition met

Q: In the record for `O=C(Cc1noc(-c2ccc(-c3ccc(Cl)cc3)cc2)n1)NO` , is IC50 less than 5 µM?
A: condition not met

Q: In the record for `O=C(Cc1noc(-c2ccc(Br)cc2)n1)NO` , is IC50 less than 5 µM?
A: condition not met

Q: In the record for `CC(C)COc1ccc(-c2nnc(C(=O)NO)o2)cc1` , is IC50 less than 5 µM?
A: condition met

Cited source: ChEMBL document CHEMBL5380809
